In this section, each of the compounds is paired with its reported normalized growth.
assay: chemical genetic growth profiling, strain panel (AID 1159580);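 also: tested at 20 µM; growth read once vehicle control cultures reached saturation at 30 °C; 1 = growth at the plate median or of vehicle wells; lower values mean less growth of the strain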; conditions: S. cerevisiae deletion strains, growth OD, locus YKL160W, strain elf1, hits give low values
In all, about 5,500 compounds went through this assay and about 2,000 (36%) were called active. About 18% were inconclusive and are not listed. The list shows a part of the results.
Write the value as a bare number.

COMPOUND	MEASUREMENT_KIND	MEASURED
C[C@@H]1CCC2[C@](C)(CO)[C@@H](O)CC[C@]2(C)[C@@]12CC[C@@](CO)(CCO)O2 (stereo not given in full)	normalized growth	0.988
CC(C)c1cccc(O)c(=O)c1	normalized growth	0.0788
Cc1ncc(CO)c(CO)c1O	normalized growth	1.01

Quick one: normalized growth of C[C@@H]1CC[C@@]23CCC4(C)[C@@](C=CC5[C@@]6(C)CCC(=O)C(C)(C)C6CC[C@]54C)(OC2=O)C3[C@H]1C (stereo not given in full) ?
0.999

For `CNC[C@H](O)c1cccc(O)c1` then?
0.963

For C[C@@H]1O[C@@H](O[C@H]2CC[C@]3(C=O)C4CC[C@]5(C)[C@@H](C6=CC(=O)OC6)CC[C@]5(O)C4CC[C@]3(O)C2)[C@H](O)[C@H](O)[C@H]1O (stereo not given in full) then?
1.01

For `CO[C@@H]1[C@@H](OC(N)=O)[C@@H](O)[C@H](Oc2ccc3c(O)c(NC(=O)c4ccc(O)c(CC=C(C)C)c4)c(=O)oc3c2C)OC1(C)C` then?
1.03

For `C[N+]1(C)C[C@H](O)[C@H](C(=O)[O-])C1` then?
0.993

For CC(=O)O[C@@H]1CC2C(C)(CC[C@H](O)C2(C)C)C2CC[C@]3(C)C(=CC(=O)O[C@H]3c3ccoc3)C21C (stereo not given in full) then?
0.991

For `COC(=O)NC(=S)Nc1ccccc1NC(=S)NC(=O)OC` then?
0.952

---

assay: chemical genetic growth profiling, strain panel (AID 1159580);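 also: tested at 20 µM; growth read once vehicle control cultures reached saturation at 30 °C; 1 = growth at the plate median or of vehicle wells; lower values mean less growth of the strain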; settings: S. cerevisiae deletion strains, growth OD, locus YML016C, strain PPZ1, hits give low values
Out of some 5,500 compounds screened, about 2,000 (36%) were called active. Inconclusive results (about 18%) are left out. The list shows a part of the results.
MEASUREMENT_KIND: normalized growth
Write the value as a bare number.

Sample answers from the record:
MOLECULE	normalized growth
NCCCN	0.994
COc1ccc(-c2cc(=O)c3c(O)c(OC)c(OC)cc3o2)cc1O	1
O=C(CCCN1CCC2(CC1)C(=O)NCN2c1ccccc1)c1ccc(F)cc1	0.995

Quick one: normalized growth of CC[C@H]1CN2CCC1C[C@@H]2[C@@H](O)c1ccnc2ccc(OC)cc12 (stereo partly drawn) ?
1

For CCCCCC(O)C1C(=O)OC(C)C(O)/C=C/C=C/C=C/C=C/C=C(\C)C(O)CC(O)CC(O)CC(O)CC(O)CC(O)CC1O (stereo not drawn) then?
1.01

---

assay: chemical genetic growth profiling, strain panel (AID 1159580);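 also: tested at 20 µM; growth read once vehicle control cultures reached saturation at 30 °C; 1 = growth at the plate median or of vehicle wells; lower values mean less growth of the strain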; conditions: S. cerevisiae deletion strains, growth OD, locus YNL322C, strain KRE1 (second series), hits give low values
The campaign covered roughly 5,500 compounds. About 2,000 (36%) were called active. About 18% were inconclusive and are not listed. This is one part of the list.
Please use satisfied for normalized growth under 1 and not satisfied for everything else, ties included.

As a guide, the following entries are already answered.
COMPOUND	CLASS_ASSIGNMENT
CCC(=O)O[C@]1(C(=O)CCl)[C@@H](C)CC2C3CCC4=CC(=O)C=C[C@]4(C)[C@@]3(F)[C@@H](O)C[C@@]21C (stereo not given in full)	not satisfied
COc1cc(O)c2c(=O)cc(-c3ccc(OC)c(-c4c(O)cc(O)c5c(=O)cc(-c6ccc(O)cc6)oc45)c3)oc2c1	not satisfied

Determine whether this compound shows normalized growth lower than 1 (ties excluded): `C=CCSCC=C`
satisfied

Data origin: PubChem BioAssay AID1159580
